Assay target: Aryl hydrocarbon receptor (Homo sapiens) (UniProt P35869)
Sequence (P35869 whole entry, looked up): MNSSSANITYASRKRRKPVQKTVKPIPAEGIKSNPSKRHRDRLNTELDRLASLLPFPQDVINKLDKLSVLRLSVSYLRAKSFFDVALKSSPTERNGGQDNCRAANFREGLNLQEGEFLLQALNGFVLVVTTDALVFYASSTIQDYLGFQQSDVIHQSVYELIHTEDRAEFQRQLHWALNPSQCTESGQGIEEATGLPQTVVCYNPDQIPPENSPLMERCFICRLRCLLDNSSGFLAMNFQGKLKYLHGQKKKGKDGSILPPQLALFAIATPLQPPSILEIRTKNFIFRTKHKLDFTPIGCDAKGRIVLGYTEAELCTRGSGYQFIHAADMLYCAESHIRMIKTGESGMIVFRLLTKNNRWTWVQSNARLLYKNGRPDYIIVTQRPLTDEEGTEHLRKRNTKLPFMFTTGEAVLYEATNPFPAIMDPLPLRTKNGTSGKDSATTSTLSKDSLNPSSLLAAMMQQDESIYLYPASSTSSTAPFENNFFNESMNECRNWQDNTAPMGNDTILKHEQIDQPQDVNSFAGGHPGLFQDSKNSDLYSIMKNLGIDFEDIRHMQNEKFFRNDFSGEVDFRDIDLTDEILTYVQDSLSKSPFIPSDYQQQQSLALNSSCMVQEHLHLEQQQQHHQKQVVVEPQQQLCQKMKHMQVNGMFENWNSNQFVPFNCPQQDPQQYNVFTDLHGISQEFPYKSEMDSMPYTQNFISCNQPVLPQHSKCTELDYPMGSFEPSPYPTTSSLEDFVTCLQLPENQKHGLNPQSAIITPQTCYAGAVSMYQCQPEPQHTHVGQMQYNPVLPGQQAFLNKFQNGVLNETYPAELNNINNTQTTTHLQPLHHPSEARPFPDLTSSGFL
Assay name: qHTS assay to identify small molecule that activate the aryl hydrocarbon receptor (AhR) signaling pathway (AID 743085); also: nearly all actives have a fitted effect of over 15% in size; also: potency is read from the fitted curve at half-maximal effect;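 as to activation: HG2L7.5c1 human HepG2 liver cells with stably integrated DRE-driven firefly reporter; % is scaled to controls: 0 for no effect and ±100 for the full control effect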
Test conditions: HepG2 AhR-luc (HG2L7.5c1), luciferase, 24 h; series mostly up to 70.3 µM
Inconclusive results are not listed. Activity calls are given as the source filed them. Calls follow the shape of the dose curve; as a rule, active = well fitted activation curve with a large enough effect in the repeat runs; inconclusive = weak or mixed curves; inactive = no such curve, though single readings can be large or run the other way.
Recorded endpoint: Potency

1) O=C(Oc1ccccc1)Oc1ccccc1; inactive
2) Clc1ccnc(Cl)n1; inactive
3) O=S(=O)(O)c1ccc(N=Nc2c(O)ccc3ccccc23)cc1; 27.3 µM (active)
4) Cc1ccc(C(C)C)cc2c(C)ccc1-2; inactive
5) O=C1C(c2[nH]c3ccc(S(=O)(=O)O)cc3c2O)=Nc2ccc(S(=O)(=O)O)cc21; inactive

[Q] Bench note: what Potency did COC(=O)Nc1nc2ccc(C(=O)c3ccccc3)cc2[nH]1 show?
[A] 4.52 µM (active)

[Q] Entry under review: CCCCCCCC/C=C\CCCCCCCCN . Reported Potency?
[A] inactive

[Q] Quick one: Potency of CCCCN(CCCC)CC(O)c1cc(Cl)cc2c1-c1ccc(Cl)cc1/C2=C/c1ccc(Cl)cc1 (stereo not given) ?
[A] 26.6 µM (active)

[Q] Looking for the measured Potency of CC(C)(c1cc(Br)c(OCC(Br)CBr)c(Br)c1)c1cc(Br)c(OCC(Br)CBr)c(Br)c1 (stereo not given) , can you help?
[A] inactive

[Q] So what's the measured Potency for this one? O=C1OC2(c3ccc(O)cc3Oc3cc(O)ccc32)c2ccc(N=C=S)cc21
[A] inactive

[Q] Consider the molecule shown here: CCO[C@@H]1O[C@H](C(COCc2ccccc2)OCc2ccccc2)[C@H](OCc2ccccc2)[C@H]1O (stereo not given in full) What is its recorded Potency?
[A] inactive

[Q] Data request, read-out Potency, for Cc1c(C)c2c(c(C)c1O)CC[C@@](C)(CCC[C@H](C)CCC[C@H](C)CCCC(C)C)O2
[A] inactive

[Q] Look up Potency for this molecule: CCCCCCCC
[A] inactive

----------
Assay name: qHTS assay for small molecule agonists of the antioxidant response element (ARE) signaling pathway (AID 743202); as to activation: % is scaled to controls: 0 for no effect and ±100 for the full control effect
Test conditions: HepG2 ARE-bla reporter, beta-lactamase FRET, 16 h; series mostly up to 73.3 µM
Records with an inconclusive call do not appear. Activity calls are given as the source filed them. Calls come from the whole dose curve; as a rule, active = well fitted activation curve with a large enough effect in the signal ratio in the repeat runs (not every such curve was filed as active); inconclusive = weak or mixed curves, or effect the other way; inactive = no such curve, though single readings can be large or run the other way; the % refers to the signal ratio.
Assign a class; possible classes are yes (1) for active, no (0) for inactive

[Q] Call for entry COC1=C(OC)C(=O)C(CCCCCCCCCCO)=C(C)C1=O :
[A] no (0)

[Q] Identify the outcome logged in this assay for the compound shown: CCCNCCC
[A] no (0)

[Q] What call does the record list for CCOC(=O)NNc1ccc(N(CC)CC(C)O)nn1 (centres undefined) ?
[A] no (0)

[Q] Per the records of this test, what outcome belongs to CCCCOC(=O)CC ?
[A] no (0)

[Q] For CCCCCCC1CCCC(=O)O1 (centres undefined) , which call appears in the assay record?
[A] no (0)

[Q] What call does the record list for CC(C)(C)NSc1nc2ccccc2s1 ?
[A] yes (1)

[Q] Hello, I am checking results. What call was entered for CC1(C)CCC[C@]2(C)[C@H]3CCO[C@]3(C)CC[C@@H]12 ?
[A] no (0)

[Q] // param item: CCCCCCCC/C=C\CCCCCCCCN ; yields the recorded call
[A] no (0)

[Q] Each compound tested received a call. Report the one for COC(=O)c1ccccc1C .
[A] no (0)

[Q] Please state the recorded outcome for this compound: O=c1oc2cc(O)ccc2c2oc3cc(O)ccc3c12
[A] yes (1)

[Q] So what was the verdict on CCOC(=O)Cn1cccc1-c1nc(-c2ccc(OC)cc2)c(-c2ccc(OC)cc2)s1 in this test?
[A] yes (1)

[Q] # lookup: test call for C[C@@H](O)[C@H](N)C(=O)O
[A] no (0)

----------
Assay target: Nuclear receptor ROR-gamma (Homo sapiens) (UniProt P51449)
Assay name: qHTS assay to identify small molecule antagonists of the retinoid-related orphan receptor gamma (ROR-gamma) signaling pathway (AID 1159521; also: nearly all actives have a fitted effect of over 50% in size)
Test conditions: Tet-on RORgamma CHO cells, RORE-luciferase, 16 h; series mostly up to 92.4 µM
Inconclusive results are not listed. Calls of active or inactive are those of the source. Calls come from the whole dose curve; as a rule, active = well fitted inhibition curve with a large enough effect in the repeat runs; inconclusive = weak or mixed curves, or effect the other way; inactive = no such curve, though single readings can be large or run the other way.
Parameter call: string, one of active, inactive

1. O=[N+]([O-])c1ccc(F)c(Cl)c1; inactive
2. CCCC(=O)OC(C)(C)Cc1ccccc1; inactive
3. O=C(O)c1cc(O)c2ccccc2c1O; active
4. C1CCC(SSC2CCCCC2)CC1; inactive
5. CCCCCCOC(=O)C(C)CC (centres undefined); inactive
6. OC12N=C(c3ccccc3)SC1Cc1cc(Cl)ccc12 (centres undefined); inactive

[Q] Record request — test call for Nc1nc(N)nc(-c2cc(Cl)ccc2Cl)n1
[A] inactive

[Q] Dear colleague, could you share the recorded outcome for CCCCCc1ccc(Cl)cc1 when you have a moment?
[A] inactive

[Q] Assay result, entry CN(C)Cc1cc(C(C)(C)C)c(O)c(C(C)(C)C)c1 — outcome?
[A] inactive

[Q] Record request — test call for O=C(O)c1ccc2cc(C(=O)O)ccc2c1
[A] inactive

[Q] # outcome recorded in this test, key = c1ccc(SSc2ccccc2)cc1
[A] inactive

----------
Assay name: qHTS assay to identify small molecule agonists of the estrogen related receptor (ERR) signaling pathway from Tox21 library (AID 1224849); also: % is scaled to controls: 0 for no effect and ±100 for the full control effect; nearly all actives have a fitted effect of over 15% in size
Test conditions: ERR reporter cell line, ONE-Glo luciferase, 18 h; at 42.5 µM (top of the series)
Recorded endpoint: activity change, positive = activation (%)
# number only, unit % dropped from output

1) Cc1cccc(C(=O)O)c1O; 0.112
2) CC(N=C(NC#N)Nc1ccncc1)C(C)(C)C (stereo unspecified); -15.5

[Q] Consider the compound shown here: Cc1cccc(C)c1NC(=O)c1ccc(N)cc1 What is its recorded activity change, positive = activation?
[A] 5.09

[Q] Consider the compound CCOc1ccc2ccccc2c1C(=O)N[C@@H]1C(=O)N2[C@@H]1SC(C)(C)[C@@H]2C(=O)O and give its measured activity change, positive = activation.
[A] -0.57

[Q] Which activity change, positive = activation value belongs to CCCCCCCCCCCC(=O)OCC(C)OC(=O)CCCCC(=O)O (stereo unspecified) ?
[A] -2.88

[Q] Dear colleague, I am looking for the recorded activity change, positive = activation of the following compound: Cc1cc(C)c(/C=C2\C(=O)Nc3ccccc32)[nH]1
[A] 5.59

[Q] Value lookup for activity change, positive = activation; key = Oc1c(I)cc(Cl)c2cccnc12
[A] -30.5

[Q] Query (compound): O=C1CCc2ccc(OCCCCN3CCN(c4cccc(Cl)c4Cl)CC3)cc2N1 ; field requested: activity change, positive = activation
[A] -56

[Q] I'd like to know its activity change, positive = activation. The compound in question is Cc1c(N)cccc1C(F)(F)F
[A] 6.86

[Q] Reported activity change, positive = activation, compound COc1cccc2c1C(=O)c1c(O)c3c(c(O)c1C2=O)C[C@@](O)(C(C)=O)C[C@@H]3O[C@H]1C[C@H](N)[C@H](O)[C@H](C)O1 : ____
[A] -0.62

[Q] Give its activity change, positive = activation value. Item: CN(C)C(=O)COC(=O)Cc1ccc(OC(=O)c2ccc(N=C(N)N)cc2)cc1
[A] -1.22

----------
Assay name: qHTS assay to identify small molecule agonists of the AP-1 signaling pathway (AID 1159526); also: % is scaled to controls: 0 for no effect and ±100 for the full control effect
Test conditions: ME-180 (cervical carcinoma) AP-1-bla reporter, beta-lactamase FRET ratio, 5 h; series mostly up to 76.8 µM
Inconclusive results are not listed. Active and inactive are the calls of the source. The call rests on the fitted dose curve.
Recorded endpoint: activation

Before answering, review these 10 worked examples.
1. Fc1ccc(C(c2ccc(F)cc2)N2CCNCC2)cc1; inactive
2. Nc1ccc(Oc2ccc(Cl)cc2)cc1; inactive
3. NC[C@H]1O[C@H](O[C@H]2[C@H](O[C@@H]3O[C@H](CO)[C@@H](O)[C@H]3O)C(O)[C@H](N)C[C@@H]2N)[C@H](N)[C@@H](O)[C@@H]1O (stereo partly specified); -3.58% [at 6.97 µM] (inactive)
4. Nc1ccc(NCCO)c([N+](=O)[O-])c1; inactive
5. O=C(Oc1ccccc1)Oc1ccccc1; inactive
6. Clc1ccnc(Cl)n1; inactive
7. CCC(=O)OC(=O)CC; inactive
8. CCN(CC)c1ccc2c(-c3ccc(S(=O)(=O)O)cc3S(=O)(=O)[O-])c3ccc(=[N+](CC)CC)cc-3oc2c1; inactive
9. CC(CO)Oc1ccccc1 (stereo unspecified); inactive
10. C#C[C@]1(O)CC[C@H]2[C@@H]3[C@H](C)CC4=C(CCC(=O)C4)[C@H]3CC[C@@]21C; inactive

# ---- query compound ----
[Q] What value of measured activation is listed for C[C@@H](O)[C@H](N)C(=O)O ?
[A] -7.74% [at 15.8 µM] (inactive)

----------
Assay name: A CellTox Green Cytotoxicity Assay to monitor cytotoxicity in HepG2 cells - 24 hour (AID 1224878); also: % is scaled to controls: 0 for no effect and ±100 for the full control effect; nearly all actives have a fitted effect of over 45% in size
Test conditions: CellTox Green fluorescence; series mostly up to 76.8 µM
Results filed as inconclusive are left out. Active and inactive are the calls of the source. Calls come from the whole dose curve; as a rule, active = well fitted activation curve with a large enough effect in the repeat runs; inconclusive = weak or mixed curves; inactive = flat fitted curve, though single readings scatter.
cytotoxicity: recorded values

The cases that follow already have their cytotoxicity on record.
1. C[C@@H](O)[C@H](N)C(=O)O; 5.91% [at 15.8 µM] (inactive)
2. O=C(O)O; -2.66% [at 6.97 µM] (inactive)
3. NC[C@H]1O[C@H](O[C@H]2[C@H](O[C@@H]3O[C@H](CO)[C@@H](O)[C@H]3O)C(O)[C@H](N)C[C@@H]2N)[C@H](N)[C@@H](O)[C@@H]1O (stereo not given in full); 9.58% [at 6.97 µM] (inactive)

[Q] Look up cytotoxicity: CC(C)(C)CC(C)(C)c1ccc(Nc2ccc(C(C)(C)CC(C)(C)C)cc2)cc1
[A] 4.45% [at 6.97 µM] (inactive)

[Q] Can you share its cytotoxicity? I mean this compound: CC(C)Cn1cnc2c(N)nc3ccccc3c21
[A] -13.9% [at 15.8 µM] (inactive)
